Assignment: determine reported Chemoheterotrophic β-galactosidase activity for the given molecules.
- System: cbb promoter
- Format: cell-based, Ralstonia eutropha
- test-context: Table 12, chemoheterotrophic (repressed) growth

-- ask # Chemoheterotrophic β-galactosidase activity lookup, item T232A (protein) MSSFLRALTLRQLQIFVTVARHASFVRAAEELHLTQPAVSMQVKQLESVVGMALFERVKGQLTLTEPGDRLLHHASRILGEVKDAEEGLQAVKDVEQGSITIGLISTSKYFAPKLLAGFTALHPGVDLRIAEGNRETLLRLLQDNAIDLALMGRPPRELDAVSEPIAAHPHVLVASPRHPLHDAKGFDLQELRHETFLLREPGSGTRTVAEYMFRDHLFTPAKVITLGSNEAIKQAVMAGMGISLLSLHTLGLELRTGEIGLLDVAGTPIERIWHVAHMSSKRLSPASESCRAYLLEHTAEFLGREYGGLMPGRRVA
-- reply 212 nmol/min/mg of protein

-- ask # Chemoheterotrophic β-galactosidase activity lookup, item G125D (protein) MSSFLRALTLRQLQIFVTVARHASFVRAAEELHLTQPAVSMQVKQLESVVGMALFERVKGQLTLTEPGDRLLHHASRILGEVKDAEEGLQAVKDVEQGSITIGLISTSKYFAPKLLAGFTALHPDVDLRIAEGNRETLLRLLQDNAIDLALMGRPPRELDAVSEPIAAHPHVLVASPRHPLHDAKGFDLQELRHETFLLREPGSGTRTVAEYMFRDHLFTPAKVITLGSNETIKQAVMAGMGISLLSLHTLGLELRTGEIGLLDVAGTPIERIWHVAHMSSKRLSPASESCRAYLLEHTAEFLGREYGGLMPGRRVA
-- reply 108 nmol/min/mg of protein

-- ask # Chemoheterotrophic β-galactosidase activity lookup, item P269S/T299I (protein) MSSFLRALTLRQLQIFVTVARHASFVRAAEELHLTQPAVSMQVKQLESVVGMALFERVKGQLTLTEPGDRLLHHASRILGEVKDAEEGLQAVKDVEQGSITIGLISTSKYFAPKLLAGFTALHPGVDLRIAEGNRETLLRLLQDNAIDLALMGRPPRELDAVSEPIAAHPHVLVASPRHPLHDAKGFDLQELRHETFLLREPGSGTRTVAEYMFRDHLFTPAKVITLGSNETIKQAVMAGMGISLLSLHTLGLELRTGEIGLLDVAGTSIERIWHVAHMSSKRLSPASESCRAYLLEHIAEFLGREYGGLMPGRRVA
-- reply 617 nmol/min/mg of protein

-- ask # Chemoheterotrophic β-galactosidase activity lookup, item G205D (protein) MSSFLRALTLRQLQIFVTVARHASFVRAAEELHLTQPAVSMQVKQLESVVGMALFERVKGQLTLTEPGDRLLHHASRILGEVKDAEEGLQAVKDVEQGSITIGLISTSKYFAPKLLAGFTALHPGVDLRIAEGNRETLLRLLQDNAIDLALMGRPPRELDAVSEPIAAHPHVLVASPRHPLHDAKGFDLQELRHETFLLREPGSDTRTVAEYMFRDHLFTPAKVITLGSNETIKQAVMAGMGISLLSLHTLGLELRTGEIGLLDVAGTPIERIWHVAHMSSKRLSPASESCRAYLLEHTAEFLGREYGGLMPGRRVA
-- reply 488 nmol/min/mg of protein

-- ask # Chemoheterotrophic β-galactosidase activity lookup, item A117V (protein) MSSFLRALTLRQLQIFVTVARHASFVRAAEELHLTQPAVSMQVKQLESVVGMALFERVKGQLTLTEPGDRLLHHASRILGEVKDAEEGLQAVKDVEQGSITIGLISTSKYFAPKLLVGFTALHPGVDLRIAEGNRETLLRLLQDNAIDLALMGRPPRELDAVSEPIAAHPHVLVASPRHPLHDAKGFDLQELRHETFLLREPGSGTRTVAEYMFRDHLFTPAKVITLGSNETIKQAVMAGMGISLLSLHTLGLELRTGEIGLLDVAGTPIERIWHVAHMSSKRLSPASESCRAYLLEHTAEFLGREYGGLMPGRRVA
-- reply 254 nmol/min/mg of protein

-- ask # Chemoheterotrophic β-galactosidase activity lookup, item D148N (protein) MSSFLRALTLRQLQIFVTVARHASFVRAAEELHLTQPAVSMQVKQLESVVGMALFERVKGQLTLTEPGDRLLHHASRILGEVKDAEEGLQAVKDVEQGSITIGLISTSKYFAPKLLAGFTALHPGVDLRIAEGNRETLLRLLQDNAINLALMGRPPRELDAVSEPIAAHPHVLVASPRHPLHDAKGFDLQELRHETFLLREPGSGTRTVAEYMFRDHLFTPAKVITLGSNETIKQAVMAGMGISLLSLHTLGLELRTGEIGLLDVAGTPIERIWHVAHMSSKRLSPASESCRAYLLEHTAEFLGREYGGLMPGRRVA
-- reply 343 nmol/min/mg of protein

-- ask # Chemoheterotrophic β-galactosidase activity lookup, item L79F (protein) MSSFLRALTLRQLQIFVTVARHASFVRAAEELHLTQPAVSMQVKQLESVVGMALFERVKGQLTLTEPGDRLLHHASRIFGEVKDAEEGLQAVKDVEQGSITIGLISTSKYFAPKLLAGFTALHPGVDLRIAEGNRETLLRLLQDNAIDLALMGRPPRELDAVSEPIAAHPHVLVASPRHPLHDAKGFDLQELRHETFLLREPGSGTRTVAEYMFRDHLFTPAKVITLGSNETIKQAVMAGMGISLLSLHTLGLELRTGEIGLLDVAGTPIERIWHVAHMSSKRLSPASESCRAYLLEHTAEFLGREYGGLMPGRRVA
-- reply 218 nmol/min/mg of protein

-- ask # Chemoheterotrophic β-galactosidase activity lookup, item E87K/G242S (protein) MSSFLRALTLRQLQIFVTVARHASFVRAAEELHLTQPAVSMQVKQLESVVGMALFERVKGQLTLTEPGDRLLHHASRILGEVKDAEKGLQAVKDVEQGSITIGLISTSKYFAPKLLAGFTALHPGVDLRIAEGNRETLLRLLQDNAIDLALMGRPPRELDAVSEPIAAHPHVLVASPRHPLHDAKGFDLQELRHETFLLREPGSGTRTVAEYMFRDHLFTPAKVITLGSNETIKQAVMAGMSISLLSLHTLGLELRTGEIGLLDVAGTPIERIWHVAHMSSKRLSPASESCRAYLLEHTAEFLGREYGGLMPGRRVA
-- reply 303 nmol/min/mg of protein

Attribution: patent US20170298395A1
